Here the recorded 5-HT2A-dependent βarrestin2 recruitment Efficacy (% ± S.E.M.) is given for each entry.
molecular target: h5HT2A (Homo sapiens, UniProt P28223); construct: expressed in transfected cells; host or cells: CHO-K1 cells, transient transfection with Lipofectamine 3000; assay: NanoBit βarrestin2 recruitment assay in CHO-K1 cells; assay type: cell-based; conditions: CHO-K1 cells, AUC of first 30 min
Sequence (P28223 whole entry): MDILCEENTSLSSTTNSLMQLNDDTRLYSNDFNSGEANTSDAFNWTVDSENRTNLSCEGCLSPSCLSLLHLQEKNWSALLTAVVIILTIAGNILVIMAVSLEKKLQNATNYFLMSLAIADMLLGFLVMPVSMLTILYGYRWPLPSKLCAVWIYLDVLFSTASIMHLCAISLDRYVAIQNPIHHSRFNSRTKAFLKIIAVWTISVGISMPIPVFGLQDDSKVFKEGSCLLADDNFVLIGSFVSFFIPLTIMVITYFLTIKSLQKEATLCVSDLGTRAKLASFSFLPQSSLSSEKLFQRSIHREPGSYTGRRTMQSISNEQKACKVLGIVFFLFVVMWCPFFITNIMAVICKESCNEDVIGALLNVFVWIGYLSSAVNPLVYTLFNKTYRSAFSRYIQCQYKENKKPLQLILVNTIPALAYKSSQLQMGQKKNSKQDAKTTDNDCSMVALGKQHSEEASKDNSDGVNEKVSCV
Sequence (P32121 whole entry, further chain): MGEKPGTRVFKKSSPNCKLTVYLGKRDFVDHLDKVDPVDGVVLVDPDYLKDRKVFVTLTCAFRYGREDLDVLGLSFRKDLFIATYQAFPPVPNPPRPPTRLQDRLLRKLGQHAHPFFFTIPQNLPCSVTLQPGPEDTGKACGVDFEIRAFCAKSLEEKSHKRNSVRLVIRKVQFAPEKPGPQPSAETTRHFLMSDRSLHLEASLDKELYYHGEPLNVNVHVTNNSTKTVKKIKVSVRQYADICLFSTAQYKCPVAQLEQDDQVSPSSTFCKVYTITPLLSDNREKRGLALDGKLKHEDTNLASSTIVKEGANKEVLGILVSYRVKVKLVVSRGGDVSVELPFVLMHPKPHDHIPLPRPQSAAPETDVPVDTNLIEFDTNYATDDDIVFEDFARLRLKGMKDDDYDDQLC

Study these solved cases before continuing.
| molecule | result |
| --- | --- |
| NCCc1c[nH]c2ccc(O)cc12 [Serotonin (5HT), 5-hydroxytryptamine] | 37 ± 16% |
| CCN(CC)C(=O)[C@@H]1C=C2c3cccc4[nH]cc(c34)C[C@H]2N(C)C1 [LSD, lysergic acid diethylamide] | 83 ± 4.7% |

Given the molecule "CN(C)CCc1c[nH]c2cccc(O)c12" , write its reported 5-HT2A-dependent βarrestin2 recruitment Efficacy (% ± S.E.M.).
45 ± 15%

Given the molecule "CN(C)CCc1c[nH]c2cccc(OP(=O)(O)O)c12" , write its reported 5-HT2A-dependent βarrestin2 recruitment Efficacy (% ± S.E.M.).
3.7 ± 22%
